Data provenance: patent US12559506B2

system.tested: LRRK2 (endogenous, HiBit tagged) (Homo sapiens, UniProt Q5S007)
Construct: endogenous in cells; host or cells: HEK293 cells with HiBit knock-in at the endogenous LRRK2 locus, stably expressing firefly luciferase
Sequence (Q5S007 whole entry): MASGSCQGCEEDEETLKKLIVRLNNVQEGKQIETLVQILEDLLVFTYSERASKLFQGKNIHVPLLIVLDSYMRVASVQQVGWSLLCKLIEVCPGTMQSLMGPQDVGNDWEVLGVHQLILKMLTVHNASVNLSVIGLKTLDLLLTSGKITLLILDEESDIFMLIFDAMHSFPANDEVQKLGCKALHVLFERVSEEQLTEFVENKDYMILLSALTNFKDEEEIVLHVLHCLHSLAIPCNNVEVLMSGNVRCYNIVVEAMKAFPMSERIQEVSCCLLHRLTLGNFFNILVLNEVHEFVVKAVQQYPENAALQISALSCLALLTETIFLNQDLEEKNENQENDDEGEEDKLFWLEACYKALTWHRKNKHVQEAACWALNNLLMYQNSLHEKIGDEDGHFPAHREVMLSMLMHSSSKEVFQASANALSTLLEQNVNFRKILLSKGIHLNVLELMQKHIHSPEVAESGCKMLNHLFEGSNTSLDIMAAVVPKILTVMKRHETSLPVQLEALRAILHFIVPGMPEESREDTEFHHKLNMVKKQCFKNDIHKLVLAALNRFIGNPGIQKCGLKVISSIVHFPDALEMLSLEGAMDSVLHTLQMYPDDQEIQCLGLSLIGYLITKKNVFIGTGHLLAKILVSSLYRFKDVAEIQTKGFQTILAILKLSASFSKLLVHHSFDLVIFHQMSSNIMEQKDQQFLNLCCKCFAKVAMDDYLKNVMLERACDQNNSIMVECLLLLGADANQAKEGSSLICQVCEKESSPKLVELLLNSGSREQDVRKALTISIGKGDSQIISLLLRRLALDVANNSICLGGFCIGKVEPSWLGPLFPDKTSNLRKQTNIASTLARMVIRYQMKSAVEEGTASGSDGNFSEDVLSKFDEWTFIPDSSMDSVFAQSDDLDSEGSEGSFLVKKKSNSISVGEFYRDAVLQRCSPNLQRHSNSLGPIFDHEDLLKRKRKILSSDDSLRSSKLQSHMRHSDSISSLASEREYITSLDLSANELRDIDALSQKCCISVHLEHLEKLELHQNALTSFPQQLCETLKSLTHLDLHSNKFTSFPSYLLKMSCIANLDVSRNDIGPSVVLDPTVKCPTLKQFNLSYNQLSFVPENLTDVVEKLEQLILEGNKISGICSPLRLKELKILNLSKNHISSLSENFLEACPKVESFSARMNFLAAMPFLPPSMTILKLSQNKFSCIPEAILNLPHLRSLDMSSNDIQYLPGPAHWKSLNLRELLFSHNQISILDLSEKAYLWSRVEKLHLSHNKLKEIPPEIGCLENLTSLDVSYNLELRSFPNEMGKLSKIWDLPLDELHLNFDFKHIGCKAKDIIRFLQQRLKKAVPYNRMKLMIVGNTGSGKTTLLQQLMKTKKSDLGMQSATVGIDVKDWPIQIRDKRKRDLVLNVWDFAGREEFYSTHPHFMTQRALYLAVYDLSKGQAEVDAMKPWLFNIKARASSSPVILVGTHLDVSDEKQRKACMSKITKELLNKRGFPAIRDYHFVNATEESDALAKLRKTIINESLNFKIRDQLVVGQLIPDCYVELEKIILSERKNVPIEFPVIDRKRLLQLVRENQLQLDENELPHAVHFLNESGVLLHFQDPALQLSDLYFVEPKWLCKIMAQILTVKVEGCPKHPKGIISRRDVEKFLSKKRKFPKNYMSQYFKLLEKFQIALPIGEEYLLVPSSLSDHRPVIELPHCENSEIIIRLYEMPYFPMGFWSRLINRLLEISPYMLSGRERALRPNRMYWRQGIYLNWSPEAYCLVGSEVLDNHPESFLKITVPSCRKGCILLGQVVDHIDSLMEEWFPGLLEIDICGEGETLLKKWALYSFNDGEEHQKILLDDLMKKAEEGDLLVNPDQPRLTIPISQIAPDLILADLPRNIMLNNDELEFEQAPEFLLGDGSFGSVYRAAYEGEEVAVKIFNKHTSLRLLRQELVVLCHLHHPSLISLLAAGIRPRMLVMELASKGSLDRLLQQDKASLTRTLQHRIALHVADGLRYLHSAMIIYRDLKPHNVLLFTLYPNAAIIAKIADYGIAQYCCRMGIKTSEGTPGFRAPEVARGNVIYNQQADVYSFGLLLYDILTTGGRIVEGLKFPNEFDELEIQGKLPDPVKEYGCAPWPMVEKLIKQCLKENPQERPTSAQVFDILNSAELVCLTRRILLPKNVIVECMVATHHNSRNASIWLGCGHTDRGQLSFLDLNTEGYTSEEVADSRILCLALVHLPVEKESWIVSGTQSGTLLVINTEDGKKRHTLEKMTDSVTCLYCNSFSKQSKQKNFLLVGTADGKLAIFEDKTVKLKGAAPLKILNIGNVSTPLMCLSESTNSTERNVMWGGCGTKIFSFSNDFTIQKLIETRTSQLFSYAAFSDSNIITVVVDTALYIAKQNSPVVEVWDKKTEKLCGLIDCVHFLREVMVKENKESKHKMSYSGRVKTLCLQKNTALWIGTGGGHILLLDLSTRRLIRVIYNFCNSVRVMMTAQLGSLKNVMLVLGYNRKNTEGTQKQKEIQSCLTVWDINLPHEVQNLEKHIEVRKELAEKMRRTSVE
test.name: Endogenous LRRK2 degradation assay, endogenous gene C-terminally HiBit-tagged in HEK293 cells (Nano-Glo Dual Luciferase)
Assay type: cell-based
condition: endogenous HiBit-tagged LRRK2 in HEK293 cells, 24 hours treatment; read-out: **Endogenous WT Dmax (%)
Documented Dmax across a set of compounds

[[record]]
compound = "COc1c(C2CCN([C@H]3C[C@H](OC4CCN(c5cc(-c6[nH]nc7ccc(OC8(C)CC8)cc67)ncn5)CC4)C3)CC2)ccc2c1CN(C1CCC(=O)NC1=O)C2=O (some centres unmarked)"
system_tested = "LRRK2 (endogenous, HiBit tagged) (Homo sapiens, UniProt Q5S007)"
endpoint_value = "50 to 70%"


Query: What does the data say about its Dmax? Entry: CC1(Oc2ccc3[nH]nc(-c4cc(N5CCC(CN6CC[C@@H](OC7CCN(c8ccc9c(c8F)CN(C8CCC(=O)NC8=O)C9=O)CC7)CC6(C)C)CC5)ncn4)c3c2)CC1 (some centres unmarked)
Reply: 50 to 70%
